Entry source: patent US12662489B2

Could you please report measured pIC50 for the items listed next?
# Target Desc: human α4β2 neuronal nicotinic receptor (Homo sapiens, UniProt P17787+P43681)
# Construct: host or cells: SH-SY5Y cells (membrane homogenates)
# Sequence (P43681 29-627 limits assumed): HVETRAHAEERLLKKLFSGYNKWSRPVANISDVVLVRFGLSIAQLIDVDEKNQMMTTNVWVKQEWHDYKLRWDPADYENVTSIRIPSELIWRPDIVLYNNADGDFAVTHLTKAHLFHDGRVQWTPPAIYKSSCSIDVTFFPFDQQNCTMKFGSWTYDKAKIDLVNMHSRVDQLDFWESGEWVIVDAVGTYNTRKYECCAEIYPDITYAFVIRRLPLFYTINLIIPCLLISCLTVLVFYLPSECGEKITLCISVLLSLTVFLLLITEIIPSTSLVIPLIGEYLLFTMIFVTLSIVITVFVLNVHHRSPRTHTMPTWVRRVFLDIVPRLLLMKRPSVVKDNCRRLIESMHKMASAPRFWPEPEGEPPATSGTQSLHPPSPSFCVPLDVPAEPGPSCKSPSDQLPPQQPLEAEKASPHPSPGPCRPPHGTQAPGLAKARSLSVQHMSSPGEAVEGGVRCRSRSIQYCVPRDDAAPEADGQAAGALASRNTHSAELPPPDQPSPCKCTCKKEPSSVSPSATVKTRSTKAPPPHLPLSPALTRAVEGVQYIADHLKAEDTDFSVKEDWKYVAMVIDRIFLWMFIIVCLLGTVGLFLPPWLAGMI
# Sequence (P17787 26-502): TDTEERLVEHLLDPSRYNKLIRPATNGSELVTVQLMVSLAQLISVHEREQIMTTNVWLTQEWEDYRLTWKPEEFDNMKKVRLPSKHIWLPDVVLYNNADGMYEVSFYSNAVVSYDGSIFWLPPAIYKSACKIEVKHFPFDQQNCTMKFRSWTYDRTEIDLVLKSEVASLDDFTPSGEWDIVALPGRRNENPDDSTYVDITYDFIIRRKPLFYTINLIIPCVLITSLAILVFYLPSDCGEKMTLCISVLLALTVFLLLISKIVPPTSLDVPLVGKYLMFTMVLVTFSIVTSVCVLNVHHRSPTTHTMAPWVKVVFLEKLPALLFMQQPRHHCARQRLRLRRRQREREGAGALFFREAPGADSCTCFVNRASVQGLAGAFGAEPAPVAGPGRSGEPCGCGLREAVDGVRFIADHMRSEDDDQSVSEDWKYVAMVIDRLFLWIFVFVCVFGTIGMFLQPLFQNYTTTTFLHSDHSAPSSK
# Protocol Text: α4β2 neuronal nicotinic receptor assay (agonist radioligand, [3H]cytisine)
# Assay type: binding
# Condition Parameters: transfected SH-SY5Y cell membranes, 0.6 nM [3H]cytisine, band
# Method: Cell membrane homogenates (30 μg protein) were incubated for 120 min at 4° C. with 0.6 nM [3H]cytisine in the absence or presence of the test compound in a buffer containing 50 mM Tris-HCl (pH 7.4), 120 mM NaCl, 5 mM KCl, 2.5 mM CaCl2 and 1 mM MgCl2. Nonspecific binding was determined in the presence of 10 μM nicotine bitartrate. […] The filters were dried then counted for radioactivity in a scintillation counter (Topcount, Packard) using a scintillation cocktail (Microscint 0, Packard). […]
pIC50: −log10 of the molar value.

Here is how some molecules turned out for pIC50.
[[record]]
molecule = "COC[C@H]1CN(c2cc(C)c3c4c(c(=O)oc3c2C)CN(C(=O)c2ccc(C(=O)NS(=O)(=O)C3(C)CC3)c(N3CCCC3)c2F)CC4)CCN1C"
reported_measurement = "< 4.00"

[[record]]
molecule = "COC[C@H]1CN(c2cc(C)c3c4c(c(=O)oc3c2C)CN(C(=O)c2ccc(C(=O)NS(=O)(=O)N(C)C)c(N3CCCC3)c2)CC4)CCN1C"
reported_measurement = "4.70 to 5.70"


# map each molecule to its pIC50
1. Cc1c(N2CCN(C)[C@@H](C)C2)ccc2c3c(c(=O)oc12)CN(C(=O)c1ccc(NS(C)(=O)=O)c(OC(F)(F)F)c1)CC3 [Reference Example 1, reference compound]
2. COC[C@H]1CN(c2cc(C)c3c4c(c(=O)oc3c2C)CN(C(=O)c2cc(N(C)C)c(C(=O)NS(=O)(=O)N3CCCC3)cc2Cl)CC4)CCN1C
3. COC[C@H]1CN(c2cc(C)c3c4c(c(=O)oc3c2C)CN(C(=O)c2cc(N(C)C)c(C(=O)NS(=O)(=O)N3CCCC3)cc2F)CC4)CCN1C
4. COC[C@H]1CN(c2cc(C)c3c4c(c(=O)oc3c2C)CN(C(=O)c2ccc(C(=O)NS(=O)(=O)C3(C)CC3)c(OC3CCC3)c2)CC4)CCN1C
5. COC[C@H]1CN(c2ccc3c4c(c(=O)oc3c2C)CN(C(=O)c2ccc(C(=O)NS(=O)(=O)N3CCCC3)c(OC3CCCC3)c2F)CC4)CCN1C

Reply:
1. > 5.70
2. 4.00 to 4.70
3. 4.00 to 4.70
4. 4.00 to 4.70
5. < 4.00

# map each molecule to its pIC50
1. COC[C@H]1CN(c2cc(C)c3c4c(c(=O)oc3c2C)CN(C(=O)c2ccc(C(=O)NS(=O)(=O)N(C)C(C)C)c(OC3CCCC3)c2F)CC4)CCN1C
2. CCOc1c(C(=O)NS(=O)(=O)N2CCCC2)ccc(C(=O)N2CCc3c(c(=O)oc4c(C)c(N5CCN(C)[C@@H](COC)C5)cc(C)c34)C2)c1F
3. COC[C@H]1CN(c2cc(C)c3c4c(c(=O)oc3c2C)CN(C(=O)c2ccc(C(=O)NS(=O)(=O)N3CCCC3)c(OC3CCC3)c2F)CC4)CCN1C
4. COC[C@H]1CN(c2cc(C)c3c4c(c(=O)oc3c2C)CN(C(=O)c2ccc(C(=O)NS(=O)(=O)N3CC5CC5C3)c(OC)c2F)CC4)CCN1C (some centres unmarked)
5. COC[C@H]1CN(c2ccc3c4c(c(=O)oc3c2C)CN(C(=O)c2ccc(C(=O)NS(=O)(=O)N3CCCC3)c(OC3CCC3)c2F)CC4)CCN1C
6. COC[C@H]1CN(c2ccc3c4c(c(=O)oc3c2C)CN(C(=O)c2ccc(C(=O)NS(=O)(=O)N(C)C)c(N3CCCC3)c2)CC4)CCN1C
7. COC[C@H]1CN(c2cc(C)c3c4c(c(=O)oc3c2C)CN(C(=O)c2ccc(C(=O)NS(=O)(=O)N3CCCC3)cc2F)CC4)CCN1C

Reply:
1: 4.00 to 4.70; 2: 4.00 to 4.70; 3: 4.00 to 4.70; 4: 4.00 to 4.70; 5: < 4.00; 6: < 4.00; 7: 4.00 to 4.70

====

# Target Desc: MTHFD1 recombinant human enzyme (Homo sapiens, UniProt P11586)
# Sequence (P11586 2-291 limits assumed): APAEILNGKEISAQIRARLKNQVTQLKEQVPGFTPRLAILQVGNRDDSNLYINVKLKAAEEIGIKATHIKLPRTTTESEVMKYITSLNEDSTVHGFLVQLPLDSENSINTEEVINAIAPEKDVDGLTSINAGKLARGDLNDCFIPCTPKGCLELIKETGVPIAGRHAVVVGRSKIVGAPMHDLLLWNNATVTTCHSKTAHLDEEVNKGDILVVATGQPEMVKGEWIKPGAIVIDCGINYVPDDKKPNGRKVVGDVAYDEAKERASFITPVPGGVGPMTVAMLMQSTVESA
# Protocol Text: MTHFD1 inhibition assay (NAD(P)H-Glo luminescence)
# Condition Parameters: MTHFD1 IC50, recombinant human enzyme 200 nM, NADP, band
Could you please report measured IC50 for the items listed next?

[[record]]
compound_string = "COC[C@H]1CN(c2cc(C)c3c4c(c(=O)oc3c2C)CN(C(=O)c2ccc(C(=O)NS(=O)(=O)C3(C)CC3)c(N(C)C)c2)CC4)CCN1C"
reported_measurement = "10 to 100 nM"

[[record]]
compound_string = "Cc1c(N2CCN3CCOC[C@H]3C2)ccc2c3c(c(=O)oc12)CN(C(=O)c1ccc(C(=O)NS(=O)(=O)N2CCCC2)c(OC2CCC2)c1)CC3"
reported_measurement = "100 to 1000 nM"

[[record]]
compound_string = "CCOc1c(C(=O)NS(=O)(=O)N2CC3(CCC3)C2)ccc(C(=O)N2CCc3c(c(=O)oc4c(C)c(N5CCN(C)[C@@H](COC)C5)cc(C)c34)C2)c1F"
reported_measurement = "10 to 100 nM"

[[record]]
compound_string = "COC[C@H]1CN(c2cc(C)c3c4c(c(=O)oc3c2C)CN(C(=O)c2cc(N(C)C)c(C(=O)NS(=O)(=O)C3(C)CC3)cc2Cl)CC4)CCN1C"
reported_measurement = "1000 to 5000 nM"

[[record]]
compound_string = "COC[C@H]1CN(c2ccc3c4c(c(=O)oc3c2Cl)CN(C(=O)c2ccc(C(=O)NS(=O)(=O)C3(C)CC3)c(OC3CCCC3)c2F)CC4)CCN1C"
reported_measurement = "1 to 10 nM"


Ask: Quick one: IC50 for COC[C@H]1CN(c2cc(C)c3c4c(c(=O)oc3c2C)CN(C(=O)c2ccc(C(=O)NS(=O)(=O)N3CCCC3)c(N3C5CCC3CC5)c2F)CC4)CCN1C ?
Reply: 10 to 100 nM

====

# Target Desc: MTHFD1 recombinant human enzyme (Homo sapiens)
# Protocol Text: MTHFD1 inhibition assay (NAD(P)H-Glo luminescence)
# Condition Parameters: MTHFD1 IC50, recombinant human enzyme 200 nM, NADP, band
pIC50: −log10 of the molar value.
Result Type: pIC50

[[record]]
compound = "CCOc1c(C(=O)NS(=O)(=O)N2CCCC2)ccc(C(=O)N2CCc3c(c(=O)oc4c(C)c(N5CCN(C)[C@@H](COC)C5)cc(C)c34)C2)c1F [Example 147]"
reported_measurement = "7.00 to 8.00"

[[record]]
compound = "COC[C@H]1CN(c2cc(Cl)c3c4c(c(=O)oc3c2C)CN(C(=O)c2cc(N(C)C)c(C(=O)NS(=O)(=O)N3CCC5(COC5)C3)cc2F)CC4)CCN1C [Example 273]"
reported_measurement = "6.00 to 7.00"

[[record]]
compound = "CCOc1c(C(=O)NS(=O)(=O)N2CC3CC3C2)ccc(C(=O)N2CCc3c(c(=O)oc4c(Cl)c(N5CCN(C)[C@@H](COC)C5)ccc34)C2)c1F (stereo partly drawn) [Example 208]"
reported_measurement = "7.00 to 8.00"

[[record]]
compound = "COC[C@H]1CN(c2ccc3c4c(c(=O)oc3c2C)CN(C(=O)c2cc(N3CCC3)c(C(=O)NS(=O)(=O)N3CCCC3)cc2F)CC4)CCN1C [Example 194]"
reported_measurement = "6.00 to 7.00"

[[record]]
compound = "COC[C@H]1CN(c2cc(F)c3c4c(c(=O)oc3c2C)CN(C(=O)c2cc(OC)c(C(=O)NS(=O)(=O)N3CCCC3)cc2F)CC4)CCN1C [Example 309]"
reported_measurement = "5.30 to 6.00"


# evaluate next
Ask: Quick one: pIC50 for COC[C@H]1CN(c2cc(C)c3c4c(c(=O)oc3c2C)CN(C(=O)c2ccc(C(=O)NS(=O)(=O)N3CCCC3)c(OC3CC3)c2F)CC4)CCN1C [Example 212] ?
Reply: 7.00 to 8.00

====

# Target Desc: MTHFD2 recombinant human enzyme (Homo sapiens)
# Sequence (P13995 36-350): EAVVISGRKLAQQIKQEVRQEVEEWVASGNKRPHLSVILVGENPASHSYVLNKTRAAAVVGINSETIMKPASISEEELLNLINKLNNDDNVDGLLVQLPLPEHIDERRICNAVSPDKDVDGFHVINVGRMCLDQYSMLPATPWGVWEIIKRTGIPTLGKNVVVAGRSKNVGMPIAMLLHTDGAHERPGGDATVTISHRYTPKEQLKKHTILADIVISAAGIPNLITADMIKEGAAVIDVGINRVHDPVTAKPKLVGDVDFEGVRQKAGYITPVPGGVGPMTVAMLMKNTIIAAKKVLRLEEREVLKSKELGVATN
# Protocol Text: MTHFD2 inhibition assay (NAD(P)H-Glo luminescence)
Result Type: IC50

Here is how some compounds turned out for IC50.
[[record]]
compound = "COC[C@H]1CN(c2ccc3c4c(c(=O)oc3c2C)CN(C(=O)c2cc(N3CCC3)c(C(=O)NS(=O)(=O)N3CCCC3)cc2F)CC4)CCN1C [Example 194]"
result_type = "IC50"
reported_measurement = "0.01 to 0.1 µM"

[[record]]
compound = "COC[C@H]1CN(c2cc(C)c3c4c(c(=O)oc3c2C)CN(C(=O)c2ccc(C(=O)NS(=O)(=O)N3C5CCC3CC5)c(OC3CC3)c2F)CC4)CCN1C [Example 213]"
result_type = "IC50"
reported_measurement = "0.001 to 0.01 µM"

[[record]]
compound = "COC[C@H]1CN(c2ccc3c4c(c(=O)oc3c2C)CN(C(=O)c2ccc(C(=O)NS(=O)(=O)C3(C)CC3)c(N3CCCC3)c2)CC4)CCN1C [Example 15]"
result_type = "IC50"
reported_measurement = "0.01 to 0.1 µM"

[[record]]
compound = "COC[C@H]1CN(c2cc(C)c3c4c(c(=O)oc3c2C)CN(C(=O)c2ccc(C(=O)NS(=O)(=O)N(C)C)c(OC3CCC3)c2C)CC4)CCN1C [Example 179]"
result_type = "IC50"
reported_measurement = "0.01 to 0.1 µM"


# map each compound to its IC50
1. COC[C@H]1CN(c2cc(C)c3c4c(c(=O)oc3c2C)CN(C(=O)c2ccc(C(=O)NS(=O)(=O)C3(C)CC3)c(N3CCCC(F)(F)C3)c2F)CC4)CCN1C [Example 76]
2. COC[C@H]1CN(c2cc(Cl)c3c4c(c(=O)oc3c2C)CN(C(=O)c2cc(N(C)C)c(C(=O)NS(=O)(=O)N3CCCC5(COC5)C3)cc2F)CC4)CCN1C [Example 272]
3. CCOc1cc(C(=O)N2CCc3c(c(=O)oc4c(C)c(N5CCN(C)[C@@H](COC)C5)cc(Cl)c34)C2)c(F)cc1C(=O)NS(=O)(=O)N(C)C1CC1 [Example 298]
4. COC[C@H]1CN(c2cc(C)c3c4c(c(=O)oc3c2C)CN(C(=O)c2cc(C(=O)NS(=O)(=O)N3CCCC3)c3c(c2F)OC2(CCC2)O3)CC4)CCN1C [Example 168]

Reply:
1: 0.001 to 0.01 µM; 2: 0.01 to 0.1 µM; 3: 0.01 to 0.1 µM; 4: 1 to 5 µM
